All figures here come from ChEMBL document CHEMBL1146111.

assay procedure: Mean residence time in iv dosed C57BL/6 mice
Type: ADME, organism-based
condition info: C57BL/6, mouse, in vivo
test readout: MRT (min)
Quick reminder: number only, in min, skip the unit.

Reported MRT ( N=C(N)c1ccc2[nH]c(-c3cc(C(CC(=O)O)C(=O)O)cc(-c4cc(CNC(N)=O)ccc4O)c3O)nc2c1 (stereo unspecified) ) = 23.5

====

assay procedure: Plasma clearance in iv dosed New Zealand White rabbit
Format: ADME, organism-based, Oryctolagus cuniculus
test readout: clearance (mL/min)
Respond numerically; units are mL/min and should not be typed.

The molecule N=C(N)c1ccc2[nH]c(-c3cc(C(CC(=O)O)C(=O)O)cc(-c4cc(CNC(N)=O)ccc4O)c3O)nc2c1 (stereo unspecified) showed clearance equal to 6.1
